Where do these numbers come from? They come from patent US20030236190A1.

# study.target: T1, Soluble IGF-1R (R&D Systems, Cat. # 391-GR/CF); recombinant human IGF-1R (human, UniProt P08069 31-935)
# T1 construct: extracellular domain; Eu3+-labelled in the TR-FRET assays; also called sIGF-1R; rhIGF-1R
# protocol.notes: phage ELISA, vs IR
Positions of bridges follow the written chain, without caps; N, C: chain ends. No end group written: not given here.
value.kind: IGF-1R/IR Comparison

KLHNLMFYYGLQRLVWGAGLG [20E2B-4-H3-IGFR]; 13.9 ratio
FFYDCLAALLQGVARYHDLCAVEIT (disulfide 5-20 (inferred)) [20C-4-C7-IGFR]; 21.8 ratio
FYDAIDQLVRGSARAGGTRD [R20α-3-2082-IR]; 12.9 ratio
RGKTAAVIVGRPADPFYHKLSELLQGG [26Hα-3-E8-IR]; 4.8 ratio
GRTMAVMAAGGPDDPFYHKLSELVQGG [B6Hα-2-D6-IR]; 4.4 ratio
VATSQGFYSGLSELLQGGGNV [20E2H-3-E12-IGFR]; 7.3 ratio
FFYRCLSRLLGGQLGSRLGLSCIGD (disulfide 5-22 (inferred)) [20C-3-E4-IGFR]; 6 ratio
